The following molecules are shown together with reported AUC values.
tested on: Rattus norvegicus; assay: AUC in rat assessed as (S)-5-(furo[3,2-b]pyridin-2-yl)-5-((6-methoxy-1-oxoisoindolin-2-yl)methyl)imidazolidine-2,4-dione level at 10 mg/kg, po by HPLC/MS analysis; format: ADME, organism-based; settings: in vivo
Show the value, then the unit it is measured in.

// worked examples, AUC included
>  <Record Smiles>
CCN1CCN(c2ccc3oc([C@]4(CN5Cc6ccc(OC)cc6C5=O)NC(=O)N(COC(=O)C(C)(C)C)C4=O)cc3n2)CC1

>  <Tested Target>
Rattus norvegicus

>  <Endpoint Value>
0.7 µM·h

$$$$
>  <Record Smiles>
COc1ccc2c(c1)C(=O)N(C[C@@]1(c3cc4nc(N5CC[C@@H](O)C5)ccc4o3)NC(=O)N(COC(=O)C(C)(C)C)C1=O)C2

>  <Tested Target>
Rattus norvegicus

>  <Endpoint Value>
2.7 µM·h

$$$$
>  <Record Smiles>
COc1ccc2c(c1F)C(=O)N(C[C@@]1(c3cc4nc(-c5cn[nH]c5)ccc4o3)NC(=O)N(COC(=O)C(C)(C)C)C1=O)C2

>  <Tested Target>
Rattus norvegicus

>  <Endpoint Value>
0.3 µM·h

$$$$

Please examine the following record next.
Which measured AUC belongs to COc1ccc2c(c1)C(=O)N(C[C@@]1(c3cc4ncccc4o3)NC(=O)N(C)C1=O)C2 , tested on Rattus norvegicus?
0.9 µM·h

---

test: AUC in dog at 10 mg/kg, po by LC/MS/MS analysis; type: ADME, organism-based, Canis lupus familiaris; settings: in vivo
Measurement Name: AUC (µM·h)
Respond numerically; units are µM·h and should not be typed.

I am curious: what AUC value has been reported for COc1ccc2c(c1)C(=O)N(C[C@@]1(c3cc4ncccc4o3)NC(=O)NC1=O)C2.[Na+] ?
41

---

target: Disintegrin and metalloproteinase domain-containing protein 17 (Homo sapiens); test: Inhibition of TACE in human whole blood assessed as inhibition of LPS-stimulated TNFalpha production pretreated for 1 hr followed by LPS stimulation for 3.5 hrs by ELISA
Sequence (P78536 whole entry, the tested form may be a part): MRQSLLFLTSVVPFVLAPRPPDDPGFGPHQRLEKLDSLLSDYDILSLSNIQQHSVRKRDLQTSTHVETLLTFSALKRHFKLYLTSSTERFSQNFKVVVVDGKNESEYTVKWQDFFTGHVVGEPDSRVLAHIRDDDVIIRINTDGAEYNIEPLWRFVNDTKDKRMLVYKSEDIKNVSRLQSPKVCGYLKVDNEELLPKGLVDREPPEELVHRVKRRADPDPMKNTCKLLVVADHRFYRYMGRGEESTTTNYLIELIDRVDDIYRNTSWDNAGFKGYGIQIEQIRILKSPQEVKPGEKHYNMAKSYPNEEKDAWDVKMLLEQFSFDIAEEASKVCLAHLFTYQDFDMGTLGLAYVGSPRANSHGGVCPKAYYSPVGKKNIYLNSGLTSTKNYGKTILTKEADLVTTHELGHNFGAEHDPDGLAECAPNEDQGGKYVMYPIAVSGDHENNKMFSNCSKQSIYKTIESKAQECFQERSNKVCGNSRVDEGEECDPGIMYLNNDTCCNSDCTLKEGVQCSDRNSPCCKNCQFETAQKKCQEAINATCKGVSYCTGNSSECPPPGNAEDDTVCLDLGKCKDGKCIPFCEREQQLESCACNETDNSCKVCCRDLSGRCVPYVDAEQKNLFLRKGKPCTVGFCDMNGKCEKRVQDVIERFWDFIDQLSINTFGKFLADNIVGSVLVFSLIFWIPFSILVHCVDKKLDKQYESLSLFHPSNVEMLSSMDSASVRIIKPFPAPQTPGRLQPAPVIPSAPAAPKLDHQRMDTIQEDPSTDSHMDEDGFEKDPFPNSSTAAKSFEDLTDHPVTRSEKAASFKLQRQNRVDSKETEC
Criterion: IC50 strictly less than 300 nM. Met: Criterion met. Not met: Criterion not met.

Example entries begin here.
>  <Record Smiles>
CCN1CCN(c2ccc3oc([C@]4(CN5Cc6ccc(OC)c(F)c6C5=O)NC(=O)N(COC(=O)C(C)(C)C)C4=O)cc3n2)CC1

>  <Class Name>
Criterion met

$$$$
>  <Record Smiles>
COc1ccc2c(c1)C(=O)N(C[C@@]1(c3cc4ncccc4o3)NC(=O)N(COC(=O)c3ccccc3OC(C)=O)C1=O)C2

>  <Class Name>
Criterion not met

$$$$
>  <Record Smiles>
COc1ccc2c(c1)C(=O)N(C[C@@]1(c3cc4nc(N5CC[C@@H](O)C5)ccc4o3)NC(=O)N(COC(=O)C(C)(C)C)C1=O)C2

>  <Class Name>
Criterion not met

$$$$
>  <Record Smiles>
COc1ccc2c(c1F)C(=O)N(C[C@@]1(c3cc4nc(N)ccc4o3)NC(=O)N(COC(=O)C(C)(C)C)C1=O)C2

>  <Class Name>
Criterion met

$$$$
>  <Record Smiles>
COc1ccc2c(c1)C(=O)N(C[C@@]1(c3cc4ncccc4o3)NC(=O)N(C(C)C)C1=O)C2

>  <Class Name>
Criterion not met

$$$$

Find out if reported IC50 for COc1ccc2c(c1)C(=O)N(C[C@@]1(c3cc4ncccc4o3)NC(=O)NC1=O)C2 is less than 300 nM
Criterion met

# strict comparison: is reported IC50 < 300 nM? input = COc1ccc2c(c1F)C(=O)N(C[C@@]1(c3cc4nc(N5CCN(C)CC5)ccc4o3)NC(=O)N(COC(=O)C(C)(C)C)C1=O)C2
Criterion met
